Each entry below carries its recorded tissue uptake at 24 h.
assayProcedure: Biodistribution in mice bearing PC-3 xenografts
Format: in vivo, Balb/c nu/nu mice
conditionLabel: Balb/c nu/nu, mouse, lungs, iv, 100 pmol, total radioactivity, PC-3 xenografted Balb/c nu/nu mice, iv 100 pmol; 24 h pi; mean ± SD, n = 4; read-out: Lungs activity uptake
endpointName: tissue uptake at 24 h (%ID/g)

| molecule | endpointName | readoutValue |
| --- | --- | --- |
| CC(C)C[C@H](NC(=O)C[C@H](O)[C@H](CC(C)C)NC(=O)[C@H](Cc1c[nH]cn1)NC(=O)CN(C)C(=O)[C@@H](NC(=O)[C@H](C)NC(=O)[C@](C)(Cc1c[nH]c2ccccc12)NC(=O)[C@H](CCC(N)=O)NC(=O)[C@@H](Cc1ccccc1)NC(=O)CN1CCC(NC(=O)COCCOCCNC(=O)CN2CCN(CC(=O)O)CCN(CC(=O)O)CCN(CC(=O)O)CC2)CC1)C(C)C)C(N)=O [[^177Lu]Lu-PKB3, metal not drawn] | tissue uptake at 24 h | 0.09 |
| CC(C)C[C@H](NC(=O)C[C@H](O)[C@H](CC(C)C)NC(=O)[C@H](Cc1c[nH]cn1)NC(=O)CN(C)C(=O)[C@@H](NC(=O)[C@H](C)NC(=O)[C@](C)(Cc1c[nH]c2ccccc12)NC(=O)[C@H](CCC(N)=O)NC(=O)[C@@H](Cc1ccccc1)NC(=O)CN1CCC(NC(=O)COCCOCCNC(=O)CCC(C(=O)O)N2CCN(CC(=O)O)CCN(CC(=O)O)CCN(CC(=O)O)CC2)CC1)C(C)C)C(N)=O (some centres unmarked) [[^177Lu]Lu-PKB2, metal not drawn] | tissue uptake at 24 h | 0.07 |

----------
assayProcedure: Biodistribution in mice bearing PC-3 xenografts
Assay type: in vivo, Balb/c nu/nu mice
conditionLabel: Balb/c nu/nu, mouse, tumor, iv, 100 pmol, total radioactivity, PC-3 xenografted Balb/c nu/nu mice, iv 100 pmol; 4 h pi; mean ± SD, n = 4; read-out: Tumor activity uptake
Procedure: Each mouse was xenografted with a subcutaneous injection of 8 × 10⁶ PC-3 cells in the right hind leg. After approximately 4 weeks, the animals were injected into the tail vein with 100 µL of radiopeptide (100 pmol—110–130 kBq, diluted in PBS/BSA). Four animals were used for each time point per peptide. […] At the determined time points, the mice were euthanized, organs were collected and weighed, and their activity content was measured in the gamma counter. […]
endpointName: tissue uptake at 4 h

| molecule | endpointName | readoutValue |
| --- | --- | --- |
| CC(C)C[C@H](NC(=O)C[C@H](O)[C@H](CC(C)C)NC(=O)[C@H](Cc1c[nH]cn1)NC(=O)CN(C)C(=O)[C@@H](NC(=O)[C@H](C)NC(=O)[C@](C)(Cc1c[nH]c2ccccc12)NC(=O)[C@H](CCC(N)=O)NC(=O)[C@@H](Cc1ccccc1)NC(=O)CN1CCC(NC(=O)COCCOCCNC(=O)CCC(C(=O)O)N2CCN(CC(=O)O)CCN(CC(=O)O)CCN(CC(=O)O)CC2)CC1)C(C)C)C(N)=O (some centres unmarked) [[^177Lu]Lu-PKB2, metal not drawn] | tissue uptake at 4 h | 15.3 %ID/g |
| CC(C)C[C@H](NC(=O)C[C@H](O)[C@H](CC(C)C)NC(=O)[C@H](Cc1c[nH]cn1)NC(=O)CN(C)C(=O)[C@@H](NC(=O)[C@H](C)NC(=O)[C@](C)(Cc1c[nH]c2ccccc12)NC(=O)[C@H](CCC(N)=O)NC(=O)[C@@H](Cc1ccccc1)NC(=O)CN1CCC(NC(=O)COCCOCCNC(=O)CN2CCN(CC(=O)O)CCN(CC(=O)O)CCN(CC(=O)O)CC2)CC1)C(C)C)C(N)=O [[^177Lu]Lu-PKB3, metal not drawn] | tissue uptake at 4 h | 18.8 %ID/g |
